// data source = patent US12570612B2

Here the recorded Minimal lethal dose is given for each entry.
Tested on: Sprague-Dawley rats
Measurement Notes: animal or person
Study Conditions: rats

Answered examples (3):
Chem Smiles: C=C=CC1(OC(=O)c2ccnn2[C@H](C)c2ccccc2)COC1
Readout Value: >6 mg/kg

Chem Smiles: CO[C@H]1C[C@@H](OC(=O)c2ccnn2[C@H](C)c2ccccc2)C1
Readout Value: >5 mg/kg

Chem Smiles: CC(=O)C1=C(OC(=O)c2c(F)c(F)nn2[C@H](C)c2ccccc2)CCC1
Readout Value: >10 mg/kg

Per the record, C[C@H](c1ccccc1)n1nccc1C(=O)OC1CCC1 has Minimal lethal dose of >15 mg/kg

Recorded result, CO[C@H]1C[C@@H](OC(=O)c2c(F)c(F)nn2[C@H](C)c2ccccc2)C1 , Minimal lethal dose: >12 mg/kg

Short answer for C=CC#CC(C)(C)OC(=O)c1ccnn1[C@H](C)c1ccccc1 : Minimal lethal dose was >12 mg/kg
